All values here come from patent US7002022B2.

Known melting point of a selection of compounds

What melting point value was documented for this compound, CN(C(=O)c1ccccc1NCc1ccncc1)c1cccc(C(F)(F)F)c1 ? 127 to 128 °C

What melting point value was documented for this compound, Cc1cccc(NC(=O)c2ccccc2NCc2ccncc2)c1 ? 139 to 140 °C

What melting point value was documented for this compound, NC(=O)Nc1cccc(NC(=O)c2ccccc2NCc2ccncc2)c1 ? 200 to 202 °C

What melting point value was documented for this compound, Cc1ccccc1NC(=O)c1ccccc1NCc1ccncc1 ? 143 °C

* * *

Endpoint Name: melting point

What melting point value was documented for this compound, O=C(Nc1cc(F)cc(C(F)(F)F)c1)c1ccccc1NCc1ccncc1 ? 196 to 197 °C

What melting point value was documented for this compound, O=C(Nc1ccc(Cl)cc1)c1ccc(Cl)cc1NCc1ccncc1 ? 186 °C

What melting point value was documented for this compound, O=C(Nc1ccc(Cl)c(C(F)(F)F)c1)c1ccccc1NCc1ccncc1 ? 162 to 172 °C

What melting point value was documented for this compound, O=C(Nc1ccc(Cl)cc1)c1ccccc1NCc1ncc[nH]1 ? 181 to 184 °C

What melting point value was documented for this compound, CC(C)(C)c1cccc(NC(=O)c2ccccc2NCc2ccncc2)c1 ? 144 to 147 °C

What melting point value was documented for this compound, O=C(Nc1ccc2cccc(O)c2c1)c1ccccc1NCc1ccncc1 ? 235 °C

What melting point value was documented for this compound, CN(C)c1cccc(NC(=O)c2ccccc2NCc2ccncc2)c1 ? 152 to 154 °C

What melting point value was documented for this compound, NC(=O)c1cccc(NC(=O)c2ccccc2NCc2ccncc2)c1 ? 195 to 203 °C

What melting point value was documented for this compound, CC(C)NC(=O)c1ccc(NC(=O)c2ccccc2NCc2ccncc2)cc1 ? 79 °C
